target: rat FAAH (Rattus norvegicus, UniProt P97612); test: Assay Method 2: FAAH assay, 3H-anandamide hydrolysis in homogenate of SK-N-MC cells transfected with rat FAAH; format: biochemical; details: average of results, > = solubility limit or highest concentration tested
Structures can show the parent of a compound that is named as a salt.
Give pIC50 for every item shown.
Numbers only, as −log10 of the molar value.

Report pIC50 for each item below.
1. Cc1ccccc1CCc1cccc(CN2CCN(C(=O)Nc3noc4ccccc34)CC2)c1 [Example 94, hydrochloride salt]
2. O=C(Nc1cc(-c2ccccc2)[nH]n1)N1CCN(Cc2cccc(Oc3ccc(Cl)cc3)c2)CC1 [Example 244, trifluoroacetate salt]
3. O=C(Nc1noc2ccccc12)N1CCN(Cc2cccc(OC(F)(F)F)c2)CC1 [Example 52, trifluoroacetic acid salt]

Ans:
1: 6.20; 2: 5.15; 3: 6.49

Report pIC50 for each item below.
1. O=C(Nc1noc2ccccc12)N1CCN(Cc2cccc(Oc3ccccn3)c2)CC1 [Example 96]
2. N#Cc1ccccc1C#Cc1cccc(CN2CCN(C(=O)Nc3noc4ccccc34)CC2)c1 [Example 85]

Ans:
1: 5.96; 2: 7.64

Report pIC50 for each item below.
1. O=C(Nc1noc2ccccc12)N1CCN(Cc2cccc(C#Cc3ccccc3Br)c2)CC1 [Example 67]
2. O=C(Nc1noc2ccccc12)N1CCN(Cc2ccc3[nH]ccc3c2)CC1 [Example 118]

Ans:
1: 7.28; 2: 5.10

Q: Give its pIC50 value. Item: O=C(Nc1noc2ccccc12)N1CCC(Cc2ccc3ccccc3c2)CC1 [Example 21]
Ans: 8.15

---

Give IC50 for every item shown.
Target: rat FAAH (Rattus norvegicus)
Sequence (P97612 1-579): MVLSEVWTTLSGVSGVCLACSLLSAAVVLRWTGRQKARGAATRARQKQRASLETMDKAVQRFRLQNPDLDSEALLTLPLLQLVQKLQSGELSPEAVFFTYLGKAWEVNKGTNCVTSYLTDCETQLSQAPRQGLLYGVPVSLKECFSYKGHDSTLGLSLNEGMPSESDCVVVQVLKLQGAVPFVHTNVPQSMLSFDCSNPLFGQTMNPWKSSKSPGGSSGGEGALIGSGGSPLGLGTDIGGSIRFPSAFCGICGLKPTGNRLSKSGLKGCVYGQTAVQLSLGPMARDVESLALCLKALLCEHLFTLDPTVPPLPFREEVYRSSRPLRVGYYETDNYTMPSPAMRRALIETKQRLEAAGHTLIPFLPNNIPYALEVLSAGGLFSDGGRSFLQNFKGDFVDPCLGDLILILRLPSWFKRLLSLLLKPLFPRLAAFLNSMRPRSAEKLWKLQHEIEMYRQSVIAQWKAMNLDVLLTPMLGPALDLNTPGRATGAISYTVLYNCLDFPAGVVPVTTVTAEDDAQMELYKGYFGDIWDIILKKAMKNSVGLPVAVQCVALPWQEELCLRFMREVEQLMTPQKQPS
Assay: Assay Method 2: FAAH assay, 3H-anandamide hydrolysis in homogenate of SK-N-MC cells transfected with rat FAAH
Type: biochemical
Conditions: average of results, > = solubility limit or highest concentration tested
Structures can show the parent of a compound that is named as a salt.
Numbers only, in nM.

# Compound, Measurement
measured = [
    ("O=C(Nc1noc2ccccc12)N1CCN(Cc2cccc(Oc3ccc(Cl)c(F)c3)c2)CC1 [Example 206]", 21),
    ("O=C(Nc1noc2ccccc12)N1CCN(Cc2ccc(OC(F)(F)F)c(Cl)c2)CC1 [Example 107]", 37),
    ("O=C(Nc1cnccn1)N1CCN(Cc2cccc(Oc3ccc(S(=O)(=O)C(F)(F)F)cc3)c2)CC1 [Example 226]", 40),
    ("O=C(Nc1cnccn1)N1CCN(Cc2ccc3c(c2)OC(F)(F)O3)CC1 [Example 210]", 1160),
    ("O=C(Nc1nnn[nH]1)N1CCN(Cc2ccc3ccccc3n2)CC1 [Example 175]", 1000),
    ("O=C(Nc1noc2cc(F)ccc12)N1CCN(Cc2cccc(Oc3ccc(Cl)cc3)c2)CC1 [Example 245]", 15),
]

Report IC50 for each item below.
1. Cc1ccccc1C#Cc1cccc(CN2CCN(C(=O)Nc3noc4ccccc34)CC2)c1 [Example 63]
2. O=C(Nc1noc2ccccc12)N1CCN(Cc2ccc(OC(F)(F)F)cc2)CC1 [Example 103]

Ans:
[77, 110]

Report IC50 for each item below.
1. O=C(Nc1noc2ccccc12)N1CCN(Cc2ccc(F)c(OC(F)(F)F)c2)CC1 [Example 106]
2. O=C(Nc1ccon1)N1CCC(Cc2ccc3ccccc3c2)CC1 [Example 11]
3. O=C(Nc1ccon1)N1CCN(Cc2cccc(Oc3cccc(C(F)(F)F)c3)c2)CC1 [Example 48, trifluoroacetic acid salt]
4. O=C(Nc1cnccn1)N1CCN(Cc2cc3ccccc3o2)CC1 [Example 230]

Ans:
27
170
49
6000
